measured.target: CCR2 (Homo sapiens)
protocol.notes: MCP-1 Receptor Binding Assay in THP-1 Cells (125I labeled MCP-1)
reported.conditions: 0.5 nM 125I labeled MCP-1, 2 hours at 30° C., read-out: Inhibition of MCP-1 Binding IC50, CCR2 Binding
quantity.name: IC50 (nM)
Please give a number only; it is taken to be in nM.

Data request: Dear colleague, I am looking for the recorded IC50 of the following compound: Cc1cc(C2CCC(N3CC(NC(=O)CNC(=O)c4cccc(C(F)(F)F)c4)C3)CC2)c[nH]c1=O (single isomer, unassigned) [Example 44a]
Data returned: 250

Consider the record given below.
Data request: Dear colleague, I am looking for the recorded IC50 of the following compound: O=C(CNC(=O)c1cccc(C(F)(F)F)c1)NC1CN(C2CCC(c3cnc(C(=O)O)s3)CC2)C1 (single isomer, unassigned) [Example 52a]
Data returned: 2800

----------
measured.target: UniProtKB P41597
protocol.notes: MCP-1 Receptor Binding Assay in THP-1 Cells (125I labeled MCP-1)
reported.conditions: 0.5 nM 125I labeled MCP-1, 2 hours at 30° C., read-out: Inhibition of MCP-1 Binding IC50, CCR2 Binding
// NB: equality with 200 nM counts as False; only IC50 strictly below is True

Data request: Consider the compound O=C(CNC(=O)c1cccc(C(F)(F)F)c1)NC1CN(C2CCC(c3cccc(=O)[nH]3)CC2)C1 (stereo not shown) [Example 47] . Is its IC50 strictly less than 200 nM?
Data returned: True

---
Data request: Consider the compound N#CNc1cccc(C2CCC(N3CC(NC(=O)CNC(=O)c4cccc(C(F)(F)F)c4)C3)CC2)n1 (stereo not shown) [Example 25] . Is its IC50 strictly less than 200 nM?
Data returned: False

Data request: Consider the compound O=C(CNC(=O)c1cccc(C(F)(F)F)c1)NC1CN(C2CCC(c3ccc(=O)[nH]c3)CC2)C1 (single isomer, unassigned) [Example 37a] . Is its IC50 strictly less than 200 nM?
Data returned: True

Data request: Consider the compound Cn1cc(C2CCC(N3CC(NC(=O)CNC(=O)c4cccc(C(F)(F)F)c4)C3)CC2)c(=O)[nH]c1=O (stereo not shown) [Example 56] . Is its IC50 strictly less than 200 nM?
Data returned: False

----------
measured.target: UniProt P41597
Sequence (P41597 1-360 isoform P41597-2): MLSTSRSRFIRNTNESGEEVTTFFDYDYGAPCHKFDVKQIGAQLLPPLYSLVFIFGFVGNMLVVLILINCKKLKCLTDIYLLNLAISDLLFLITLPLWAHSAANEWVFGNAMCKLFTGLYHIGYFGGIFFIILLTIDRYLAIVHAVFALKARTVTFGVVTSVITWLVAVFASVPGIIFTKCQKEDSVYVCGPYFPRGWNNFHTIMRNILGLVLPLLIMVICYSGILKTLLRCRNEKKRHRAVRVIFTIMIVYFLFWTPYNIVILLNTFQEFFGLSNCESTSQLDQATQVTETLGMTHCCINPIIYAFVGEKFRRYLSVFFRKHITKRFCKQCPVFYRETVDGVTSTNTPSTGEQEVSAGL
protocol.notes: MCP-1 Receptor Binding Assay in THP-1 Cells (125I labeled MCP-1)
reported.conditions: 0.5 nM 125I labeled MCP-1, 2 hours at 30° C., read-out: Inhibition of MCP-1 Binding IC50, CCR2 Binding
pIC50: −log10 of the molar value.
Response key: class 1 means pIC50 >= 7; class 0 means pIC50 < 7.

The following compounds have reported results that may help.
Data request: Form field: pIC50 at least 7? Entry: O=C(CNC(=O)c1cccc(C(F)(F)F)c1)NC1CN(C2CCC(c3cccnc3O)CC2)C1 (stereo not shown)
Data returned: class 0

Data request: Form field: pIC50 at least 7? Entry: O=C(CNC(=O)c1cccc(C(F)(F)F)c1)NC1CN(C2CCC(c3nsc(Cl)n3)CC2)C1 (mixture of isomers)
Data returned: class 0

Data request: Form field: pIC50 at least 7? Entry: COc1cnccc1C1CCC(N2CC(NC(=O)CNC(=O)c3cccc(C(F)(F)F)c3)C2)CC1 (stereo not shown)
Data returned: class 1

---
Data request: Form field: pIC50 at least 7? Entry: CS(=O)(=O)N(c1ccc(C2CCC(N3CC(NC(=O)CNC(=O)c4cccc(C(F)(F)F)c4)C3)CC2)nc1)S(C)(=O)=O (stereo not shown)
Data returned: class 0

Data request: Form field: pIC50 at least 7? Entry: COc1cc(C2CCC(N3CC(NC(=O)CNC(=O)c4cccc(C(F)(F)F)c4)C3)CC2)ccn1 (stereo not shown)
Data returned: class 1

Data request: Form field: pIC50 at least 7? Entry: O=C(CNC(=O)c1cccc(C(F)(F)F)c1)NC1CN(C2CCC(c3ncccc3O)CC2)C1 (stereo not shown)
Data returned: class 1
